- Tgt: UniProt P31649
- Sequence (P31649 whole entry): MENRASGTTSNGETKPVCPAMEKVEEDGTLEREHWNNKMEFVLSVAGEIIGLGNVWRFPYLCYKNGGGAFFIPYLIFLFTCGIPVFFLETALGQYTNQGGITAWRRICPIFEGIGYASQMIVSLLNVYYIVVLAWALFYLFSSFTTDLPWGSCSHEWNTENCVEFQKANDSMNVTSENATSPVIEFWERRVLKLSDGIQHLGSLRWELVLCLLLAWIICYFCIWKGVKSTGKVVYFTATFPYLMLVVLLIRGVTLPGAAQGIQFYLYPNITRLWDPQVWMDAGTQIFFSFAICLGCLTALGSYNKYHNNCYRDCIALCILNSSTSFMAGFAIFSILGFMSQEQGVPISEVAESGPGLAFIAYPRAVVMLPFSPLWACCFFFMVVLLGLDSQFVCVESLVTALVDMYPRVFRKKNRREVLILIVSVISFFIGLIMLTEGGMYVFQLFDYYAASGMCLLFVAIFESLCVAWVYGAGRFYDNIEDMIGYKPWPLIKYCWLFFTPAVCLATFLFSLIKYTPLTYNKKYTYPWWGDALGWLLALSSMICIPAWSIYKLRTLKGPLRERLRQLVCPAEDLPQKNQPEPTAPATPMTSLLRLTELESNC
- Assay: Inhibition of mouse GAT2 expressed in HEK293 cell line assessed as inhibition of [3H]GABA uptake measured after 35 mins by liquid scintillation method
pIC50: −log10 of the molar value.
Here the recorded pIC50 is given for each entry.
Parameter measured: pIC50

[[record]]
compound = "O=C(O)C1=CCCN(CCO/N=C/c2ccccc2-c2ccc(Cl)cc2Cl)C1"
tgt = "UniProt P31649"
experimental_value = 4.31

[[record]]
compound = "Cc1ccsc1C(=CCCN(C)C(CCO)C(=O)NCc1ccc(F)cc1F)c1sccc1C (centres undefined)"
tgt = "UniProt P31649"
experimental_value = 5.00

[[record]]
compound = "Cc1ccsc1C(=CCCN(C)C(CCO)C(=O)NCc1ccc(F)cc1)c1sccc1C (centres undefined)"
tgt = "UniProt P31649"
experimental_value = 5.25

[[record]]
compound = "Cc1ccsc1C(=CCCN(C)C(CCN)C(=O)NCc1ccccc1)c1sccc1C (centres undefined)"
tgt = "UniProt P31649"
experimental_value = 5.26

